Kindly supply the reported solubility kinetic at 4 h values for the records listed here.
measurement_notes: Kinetic solubility in MOPS buffer at pH 7.4 measured after 4 hrs by HPLC-ESI-MS/MS analysis
Assay type: physicochemical
study_conditions: read-out: Kinetic_solubility
Answers are plain numbers, in µM.

Examples with answers:
[
  {
    "smiles_data": "C[C@H](CCC(=O)N[C@H](CC(=O)O)Cc1c[nH]c2ccccc12)[C@H]1CC[C@H]2[C@@H]3CC[C@@H]4C/C(=N/O)CC[C@]4(C)[C@H]3CC[C@]12C",
    "measurement": 51.9
  },
  {
    "smiles_data": "C[C@H](CCC(=O)N[C@H](CC(=O)O)Cc1c[nH]c2ccccc12)[C@H]1CC[C@H]2[C@@H]3CC[C@@H]4C[C@H](OC(N)=O)CC[C@]4(C)[C@H]3CC[C@]12C",
    "measurement": 18.7
  }
]

# evaluate next
Could you share which solubility kinetic at 4 h value was measured for C[C@H](CCC(=O)N[C@H](CC(=O)O)Cc1c[nH]c2ccccc12)[C@H]1CC[C@H]2[C@@H]3CC[C@@H]4C[C@H](O)CC[C@]4(C)[C@H]3CC[C@]12C ?
31.8

====

measurement_notes: Tmax in mouse at 30 mg/kg, administered as single dose via oral gavage by HPLC-ESI-MS/MS analysis
Assay type: ADME, organism-based
study_conditions: in vivo
Kindly supply the reported Tmax values for the records listed here.
One number for each entry, in h.

[
  {
    "smiles_data": "C[C@H](CCC(=O)N[C@H](CC(=O)O)Cc1c[nH]c2ccccc12)[C@H]1CC[C@H]2[C@@H]3CC[C@@H]4C/C(=N/O)CC[C@]4(C)[C@H]3CC[C@]12C",
    "Tmax (h)": 1
  }
]

Could you share which Tmax value was measured for C[C@H](CCC(=O)N[C@H](CC(=O)O)Cc1c[nH]c2ccccc12)[C@H]1CC[C@H]2[C@@H]3CC[C@@H]4C[C@H](OC(N)=O)CC[C@]4(C)[C@H]3CC[C@]12C ?
1

====

target_or_system: Ephrin type-A receptor 2 (Mus musculus)
Sequence (Q03145 whole entry): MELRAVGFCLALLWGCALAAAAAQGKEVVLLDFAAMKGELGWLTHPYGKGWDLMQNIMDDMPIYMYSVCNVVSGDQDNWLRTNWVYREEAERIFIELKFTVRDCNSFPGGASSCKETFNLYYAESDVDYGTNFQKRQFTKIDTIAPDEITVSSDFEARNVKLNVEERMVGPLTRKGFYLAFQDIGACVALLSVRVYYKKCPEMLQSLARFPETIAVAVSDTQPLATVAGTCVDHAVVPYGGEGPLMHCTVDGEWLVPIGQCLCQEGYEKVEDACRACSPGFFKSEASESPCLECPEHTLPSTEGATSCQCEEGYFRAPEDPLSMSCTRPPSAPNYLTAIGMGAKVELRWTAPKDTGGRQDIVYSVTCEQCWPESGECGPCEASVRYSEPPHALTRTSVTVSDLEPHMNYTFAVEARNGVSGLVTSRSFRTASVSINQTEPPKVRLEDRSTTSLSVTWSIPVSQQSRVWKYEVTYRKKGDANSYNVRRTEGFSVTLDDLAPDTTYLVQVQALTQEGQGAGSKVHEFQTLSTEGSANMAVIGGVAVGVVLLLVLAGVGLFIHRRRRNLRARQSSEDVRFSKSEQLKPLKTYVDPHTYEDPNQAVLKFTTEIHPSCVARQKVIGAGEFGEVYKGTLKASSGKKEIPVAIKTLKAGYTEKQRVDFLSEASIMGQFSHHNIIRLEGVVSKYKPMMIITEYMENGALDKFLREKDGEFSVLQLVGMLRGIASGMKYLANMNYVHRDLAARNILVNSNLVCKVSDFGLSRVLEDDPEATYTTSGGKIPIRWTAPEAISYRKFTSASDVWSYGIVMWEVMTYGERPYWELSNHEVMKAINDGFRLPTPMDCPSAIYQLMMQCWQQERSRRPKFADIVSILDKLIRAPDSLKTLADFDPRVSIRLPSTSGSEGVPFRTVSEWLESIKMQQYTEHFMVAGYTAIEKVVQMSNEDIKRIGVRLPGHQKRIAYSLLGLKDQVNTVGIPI
measurement_notes: Displacement of biotinylated ephrin-A1-Fc from recombinant mouse EphA2 receptor preincubated for 1 hr followed by biotinylated ephrin-A1-Fc addition measured after 4 hrs by ELISA method
Kindly supply the reported pIC50 values for the records listed here.
Answers are plain numbers, as −log10 of the molar value.

[
  {
    "smiles_data": "CSCC[C@@H](CC(=O)O)NC(=O)CC[C@@H](C)[C@H]1CC[C@H]2[C@@H]3CC[C@@H]4C[C@H](O)CC[C@]4(C)[C@H]3CC[C@]12C",
    "pIC50": 4.08
  },
  {
    "smiles_data": "C[C@H](CCC(=O)N[C@H](CC(=O)O)Cc1c[nH]c2ccccc12)[C@H]1CC[C@H]2[C@@H]3CC[C@@H]4CCCC[C@]4(C)[C@H]3CC[C@]12C",
    "pIC50": 4.55
  }
]

For every item in the list below, what is its measured pIC50?
1. C[C@H](CCC(=O)N[C@H](CC(=O)O)Cc1cccc2ccccc12)[C@H]1CC[C@H]2[C@@H]3CC[C@@H]4C[C@H](O)CC[C@]4(C)[C@H]3CC[C@]12C
2. C[C@H](CCC(=O)NCCS(=O)(=O)O)[C@H]1CC[C@H]2[C@@H]3CC[C@@H]4C[C@H](O)CC[C@]4(C)[C@H]3CC[C@]12C
3. C[C@H](CCC(=O)O)[C@H]1CC[C@H]2[C@@H]3CC[C@@H]4C[C@H](O)CC[C@]4(C)[C@H]3CC[C@]12C

5.41
4.14
4.10

====

target_or_system: Ephrin type-A receptor 2 (Mus musculus)
measurement_notes: Displacement of biotinylated ephrin-A1-Fc from recombinant mouse EphA2 receptor preincubated for 1 hr followed by biotinylated ephrin-A1-Fc addition measured after 4 hrs by ELISA method
Note to self: IC50 under 10 µM means fulfilled, ties and anything higher get not fulfilled.

Some solved entries appear below for comparison.
[
  {
    "smiles_data": "C[C@H](CCC(=O)N[C@H](CC(=O)O)Cc1c[nH]c2ccccc12)[C@H]1CC[C@H]2[C@@H]3CC[C@@H]4C/C(=N/O)CC[C@]4(C)[C@H]3CC[C@]12C",
    "qualitative_label": "fulfilled"
  },
  {
    "smiles_data": "C[C@H](CCC(=O)N[C@H](CC(=O)O)Cc1ccccc1)[C@H]1CC[C@H]2[C@@H]3CC[C@@H]4C[C@H](O)CC[C@]4(C)[C@H]3CC[C@]12C",
    "qualitative_label": "not fulfilled"
  },
  {
    "smiles_data": "CO/N=C1\\CC[C@@]2(C)[C@H](CC[C@@H]3[C@@H]2CC[C@]2(C)[C@@H]([C@H](C)CCC(=O)N[C@H](CC(=O)O)Cc4c[nH]c5ccccc45)CC[C@@H]32)C1",
    "qualitative_label": "not fulfilled"
  },
  {
    "smiles_data": "C[C@H](CCC(=O)N[C@H](CC(=O)O)Cc1csc2ccccc12)[C@H]1CC[C@H]2[C@@H]3CC[C@@H]4C[C@H](O)CC[C@]4(C)[C@H]3CC[C@]12C",
    "qualitative_label": "fulfilled"
  }
]

is_below(IC50, 10 µM) for C[C@H](CCC(=O)N[C@H](CC(=O)O)c1ccccc1)[C@H]1CC[C@H]2[C@@H]3CC[C@@H]4C[C@H](O)CC[C@]4(C)[C@H]3CC[C@]12C ?
not fulfilled

is_below(IC50, 10 µM) for C[C@H](CCC(=O)N[C@H](CC(=O)O)Cc1c[nH]c2ccccc12)[C@H]1CC[C@H]2[C@@H]3CC[C@@H]4C[C@H](OC(N)=O)CC[C@]4(C)[C@H]3CC[C@]12C ?
fulfilled

is_below(IC50, 10 µM) for C[C@H](CCC(=O)NCCC(=O)O)[C@H]1CC[C@H]2[C@@H]3CC[C@@H]4C[C@H](O)CC[C@]4(C)[C@H]3CC[C@]12C ?
not fulfilled
